The origin of these recorded values is patent US20120237528A1.

molecular target: T1, recombinant extracellular domain (ECD) of human TF, amino acid 1-219 of the mature chain, C-terminal His6-tag (human, UniProt P13726 33-251); assay: Biacore
T1 construct: expressed in a mammalian system; used for ELISA and Biacore; biotinylated by NHS-ester for the Fab ELISA; also called His6-TF-ECD1-219; HumanTF1-219
// assign Yes if Kd falls strictly below 500 pM, else No (ties count as No)

Solved entries (count: 8):
- BINDER: "M61 (antibody, V domains shown, complete MAb; FR4 is its own entry; also called H22/L5) VH: EVQLVQSGAEVKKPGESLRISCKGSGYTFITYWIEWVRQMPGKGLEWMGDILPGSGSTNYSPSFQGHVTISADKSISTAYLQWSSLKASDTAMYYCARSGYYGNSGFAYWGQGTLVTVSS VL: DIVMTQTPLSLSVTPGQPASISCKSSQSLLSSGNQKNYLTWYLQKPGQPPQLLIYWASTRESGVPDRFSGSGSGTDFTLKISRVEAEDVGVYYCQNDYTYPLTFGQGTKLEIK"
  CLASS_LABEL: "Yes"
- BINDER: "M12 (antibody, V domains shown, complete MAb; FR4 is its own entry; also called H15/L5) VH: EVQLVQSGAEVKKPGESLRISCKGSGYTFITYWIEWVRQMPGKGLEWMGDILPGSGSTNYNENFKGHVTISADKSISTAYLQWSSLKASDTAMYYCARSGYYGNSGFAYWGQGTLVTVSS VL: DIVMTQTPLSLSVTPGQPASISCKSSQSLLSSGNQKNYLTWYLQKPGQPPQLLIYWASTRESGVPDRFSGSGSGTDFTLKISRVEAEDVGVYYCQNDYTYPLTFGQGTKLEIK"
  CLASS_LABEL: "No"
- BINDER: "M1613 (antibody, V domains shown, complete MAb; FR4 is its own entry; also called H136/L3) VH: EVQLVQSGAEVKKPGESLRISCKGSGYTFSSHWIEWVRQMPGKGLEWMGDILPGSGFTHYSPSFQGHVTISADKSISTAYLKWSSLKASDTAMYYCARSGYYGNSGFAYWGQGTLVTVSS VL: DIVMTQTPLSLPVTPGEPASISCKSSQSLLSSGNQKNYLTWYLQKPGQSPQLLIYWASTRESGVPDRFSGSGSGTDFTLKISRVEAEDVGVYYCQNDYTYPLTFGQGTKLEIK"
  CLASS_LABEL: "No"
- BINDER: "M37 (antibody, V domains shown, complete MAb; FR4 is its own entry; also called H19/L2) VH: QVQLVQSGAEVKKPGSSVKVSCKASGYTFITYWIEWVRQAPGQGLEWMGDILPGSGSTNYNENFKGRVTITADESTSTAYMELSSLRSEDTAVYYCARSGYYGNSGFAYWGQGTLVTVSS VL: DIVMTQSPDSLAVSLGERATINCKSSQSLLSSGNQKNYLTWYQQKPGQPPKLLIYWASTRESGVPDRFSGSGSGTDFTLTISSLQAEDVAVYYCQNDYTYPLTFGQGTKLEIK"
  CLASS_LABEL: "No"
- BINDER: "M1638 (antibody, V domains shown, complete MAb; FR4 is its own entry; also called H22/L138) VH: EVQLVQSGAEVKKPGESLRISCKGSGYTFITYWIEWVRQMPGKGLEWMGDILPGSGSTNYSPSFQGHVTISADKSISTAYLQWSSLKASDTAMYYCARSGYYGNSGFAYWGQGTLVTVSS VL: DIVMTQTPLSLPVTPGEPASISCKSSQSLLWFVNQKNYLTWYLQKPGQSPQLLIYHASTRESGVPDRFSGSGSGTDFTLKISRVEAEDVGVYYCQNDDSYPLTFGQGTKLEIK"
  CLASS_LABEL: "Yes"
- BINDER: "M68 (antibody, V domains shown, complete MAb; FR4 is its own entry; also called H23/L5) VH: QVQLVQSGAEVKKPGSSVKVSCKASGYTFITYWIEWVRQAPGQGLEWMGDILPGSGSTNYAQKFQGRVTITADESTSTAYMELSSLRSEDTAVYYCARSGYYGNSGFAYWGQGTLVTVSS VL: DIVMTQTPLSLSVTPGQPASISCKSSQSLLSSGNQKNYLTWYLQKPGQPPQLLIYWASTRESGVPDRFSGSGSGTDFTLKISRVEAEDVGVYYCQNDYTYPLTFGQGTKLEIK"
  CLASS_LABEL: "No"
- BINDER: "M52 (antibody, V domains shown, complete MAb; FR4 is its own entry; also called H21/L3) VH: EVQLVQSGAEVKKPGATVKISCKVSGYTFITYWIEWVQQAPGKGLEWMGDILPGSGSTNYNENFKGRVTITADTSTDTAYMELSSLRSEDTAVYYCATSGYYGNSGFAYWGQGTLVTVSS VL: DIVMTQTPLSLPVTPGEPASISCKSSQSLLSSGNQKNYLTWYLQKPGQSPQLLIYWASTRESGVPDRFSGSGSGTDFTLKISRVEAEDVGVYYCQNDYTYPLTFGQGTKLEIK"
  CLASS_LABEL: "No"
- BINDER: "M1652 (antibody, V domains shown, complete MAb; FR4 is its own entry; also called H171/L225) VH: EVQLVQSGAEVKKPGESLRISCKGSGYTFAPYWIEWVRQMPGKGLEWMGDILPGTGFTTYSPSFQGHVTISADKSISTAYLQWSSLKASDTAMYYCARSGYYGNSGFAYWGQGTLVTVSS VL: DIVMTQTPLSLPVTPGEPASISCKSSQSLLFRPTQKNYLTWYLQKPGQSPQLLIYWASTRESGVPDRFSGSGSGTDFTLKISRVEAEDVGVYYCQNDDSYPLTFGQGTKLEIK"
  CLASS_LABEL: "Yes"

Prompt: Decide: Kd of M1601 (antibody, V domains shown, complete MAb; FR4 is its own entry; also called H105/L3) VH: EVQLVQSGAEVKKPGESLRISCKGSGYTFGPYWIEWVRQMPGKGLEWMGDILPGTGYTVYSPSFQGHVTISADKSISTAYLQWSSLKASDTAMYYCARSGYYGNSGFAYWGQGTLVTVSS VL: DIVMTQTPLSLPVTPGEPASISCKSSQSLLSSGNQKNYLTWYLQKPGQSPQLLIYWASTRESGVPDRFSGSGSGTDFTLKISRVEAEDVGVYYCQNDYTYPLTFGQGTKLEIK strictly below 500 pM?
Completion: Yes

Prompt: Decide: Kd of M1592 (antibody, V domains shown, complete MAb; FR4 is its own entry; also called H165/L3) VH: EVQLVQSGAEVKKPGESLRISCKGSGYTFSPHWIEWVRQMPGKGLEWMGDILPGSGYTIYSPSFQGHVTISADKSISTAYLQWSSLKASDTAMYYCARSGYYGNSGFAYWGQGTLVTVSS VL: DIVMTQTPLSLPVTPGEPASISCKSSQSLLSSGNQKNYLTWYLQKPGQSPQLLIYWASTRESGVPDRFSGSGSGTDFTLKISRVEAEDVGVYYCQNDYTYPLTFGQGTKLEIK strictly below 500 pM?
Completion: Yes
